- Test system: Pseudomonas aeurginosa NCTC 10490
- run.description: MIC, two-fold dilution method, Pseudomonas aeurginosa NCTC 10490
- Assay type: cell-based
- condition.info: NCTC10490, Muller Hinton Broth, 10^6 CFU per ml, 37° C., 18 to 20 hours, read-out: Antibacterial Activity (MIC)
measurement.kind: MIC (µg/mL)

# compound, result
measured = [
    ("C#CCO/N=C(\\C(=O)NC1C(=O)N2C(C(=O)[O-])=C(CSc3cc[n+](CC)c4cc(N5CCN(C)CC5)c(F)cc34)CSC12)c1csc(N)n1 (stereo not drawn) [Compound I-46]", 6.25),
]

A: CC(C)(O/N=C(\C(=O)NC1C(=O)N2C(C(=O)[O-])=C(CSc3cc[n+](C4CC4)c4cc(N5CCNCC5)c(F)cc34)CS[C@H]12)c1csc(N)n1)C(=O)O (stereo partly drawn) [Compound I-57]
B: CCN1CCN(c2cc3c(cc2F)c(SCC2=C(C(=O)[O-])N4C(=O)C(NC(=O)/C(=N\OC)c5csc(N)n5)C4SC2)cc[n+]3CC)CC1 (stereo not drawn) [Compound I-11]
C: CC[n+]1ccc(SCC2=C(C(=O)[O-])N3C(=O)C(NC(=O)/C(=N\OC)c4csc(N)n4)C3SC2)c2cc(F)c(N3CCN(C)CC3)cc21 (stereo not drawn) [Compound I-10]
Prompt: Arrange the 3 compounds from largest to smallest MIC. To answer, write out the labels according to the requested order.
Response: C, B, A
(C: 6.25 µg/mL, B: 1.56 µg/mL, A: 0.78 µg/mL)

---

- Test system: Klebsiella pneumoniae ATCC 10031
- run.description: MIC, two-fold dilution method, Klebsiella pneumoniae ATCC 10031
- Format: cell-based
- condition.info: Muller Hinton Broth, 10^6 CFU per ml, 37° C., 18 to 20 hours
measurement.kind: Antibacterial Activity (MIC) (µg/mL)

Consider the following illustrative entries.
# molecule, study.target, measurement.unit, Antibacterial Activity (MIC)
data = [
    ("CC1CNCCN1c1cc2c(cc1F)c(SCC1=C(C(=O)[O-])N3C(=O)C(NC(=O)/C(=N\\OC(C)(C)C(=O)O)c4csc(N)n4)[C@H]3SC1)cc[n+]2C (some centres unmarked)", "Klebsiella pneumoniae ATCC 10031", "µg/mL", 0.39),
    ("C=CCO/N=C(\\C(=O)NC1C(=O)N2C(C(=O)[O-])=C(CSc3cc[n+](C4CC4)c4cc(N5CCNCC5C)c(F)cc34)CS[C@H]12)c1csc(N)n1 (some centres unmarked)", "Klebsiella pneumoniae ATCC 10031", "µg/mL", 0.78),
    ("C=CCO/N=C(\\C(=O)NC1C(=O)N2C(C(=O)[O-])=C(CSc3cc[n+](C)c4cc(N5CCNCC5C)c(F)cc34)CS[C@H]12)c1csc(N)n1 (some centres unmarked)", "Klebsiella pneumoniae ATCC 10031", "µg/mL", 0.2),
    ("C#CCO/N=C(\\C(=O)NC1C(=O)N2C(C(=O)[O-])=C(CSc3cc[n+](CC)c4cc(N5CCNCC5C)c(F)cc34)CS[C@H]12)c1csc(N)n1 (some centres unmarked)", "Klebsiella pneumoniae ATCC 10031", "µg/mL", 1.56),
    ("C#CCO/N=C(\\C(=O)NC1C(=O)N2C(C(=O)[O-])=C(CSc3cc[n+](C)c4cc(N5CCNCC5C)c(F)cc34)CS[C@H]12)c1csc(N)n1 (some centres unmarked)", "Klebsiella pneumoniae ATCC 10031", "µg/mL", 0.78),
]

a: C=CC[n+]1ccc(SCC2=C(C(=O)[O-])N3C(=O)C(NC(=O)/C(=N\OC)c4csc(N)n4)C3SC2)c2cc(F)c(N3CCNCC3C)cc21 (centres unmarked)
b: CC[n+]1ccc(SCC2=C(C(=O)[O-])N3C(=O)C(NC(=O)/C(=N\OC(C)(C)C(=O)O)c4csc(N)n4)[C@H]3SC2)c2cc(F)c(-n3ccnc3)cc21 (some centres unmarked)
c: C#CCO/N=C(\C(=O)NC1C(=O)N2C(C(=O)[O-])=C(CSc3cc[n+](C4CC4)c4cc(N5CCNCC5C)c(F)cc34)CS[C@H]12)c1csc(N)n1 (some centres unmarked)
Prompt: Arrange the 3 molecules from largest to smallest Antibacterial Activity (MIC). To answer, write out the labels according to the requested order.
Response: b, c, a
(b: 1.56 µg/mL, c: 0.78 µg/mL, a: 0.39 µg/mL)

---

- Tested on: Pseudomonas aeurginosa NCTC 10490
- run.description: MIC, two-fold dilution method, Pseudomonas aeurginosa NCTC 10490
- Format: cell-based
- condition.info: Muller Hinton Broth, 10^6 CFU per ml, 37° C., 18 to 20 hours
measurement.kind: Antibacterial Activity (MIC) (µg/mL)

# molecule, study.target, Antibacterial Activity (MIC) [µg/mL]
measured = [
    ("CC[n+]1ccc(SCC2=C(C(=O)[O-])N3C(=O)C(NC(=O)/C(=N\\OC(C)(C)C(=O)O)c4csc(N)n4)[C@H]3SC2)c2cc(F)c(-n3ccnc3)cc21 (some centres unmarked)", "Pseudomonas aeurginosa NCTC 10490", 1.56),
    ("C#CCO/N=C(\\C(=O)NC1C(=O)N2C(C(=O)[O-])=C(CSc3cc[n+](CC)c4cc(N5CCNCC5C)c(F)cc34)CS[C@H]12)c1csc(N)n1 (some centres unmarked)", "Pseudomonas aeurginosa NCTC 10490", 1.56),
    ("CC1CNCCN1c1cc2c(cc1F)c(SCC1=C(C(=O)[O-])N3C(=O)C(NC(=O)/C(=N\\OC(C)(C)C(=O)O)c4csc(N)n4)[C@H]3SC1)cc[n+]2C (some centres unmarked)", "Pseudomonas aeurginosa NCTC 10490", 0.78),
    ("CO/N=C(\\C(=O)NC1C(=O)N2C(C(=O)[O-])=C(CSc3cc[n+](C)c4cc(N5CCNCC5C)c(F)cc34)CSC12)c1csc(N)n1 (centres unmarked)", "Pseudomonas aeurginosa NCTC 10490", 0.78),
    ("C#CCO/N=C(\\C(=O)NC1C(=O)N2C(C(=O)[O-])=C(CSc3cc[n+](C4CC4)c4cc(N5CCNCC5C)c(F)cc34)CS[C@H]12)c1csc(N)n1 (some centres unmarked)", "Pseudomonas aeurginosa NCTC 10490", 1.56),
    ("C=CCO/N=C(\\C(=O)NC1C(=O)N2C(C(=O)[O-])=C(CSc3cc[n+](C)c4cc(N5CCNCC5C)c(F)cc34)CS[C@H]12)c1csc(N)n1 (some centres unmarked)", "Pseudomonas aeurginosa NCTC 10490", 0.78),
    ("C=CC[n+]1ccc(SCC2=C(C(=O)[O-])N3C(=O)C(NC(=O)/C(=N\\OC)c4csc(N)n4)C3SC2)c2cc(F)c(N3CCNCC3C)cc21 (centres unmarked)", "Pseudomonas aeurginosa NCTC 10490", 1.56),
    ("CC[n+]1ccc(SCC2=C(C(=O)[O-])N3C(=O)C(NC(=O)/C(=N\\OC)c4csc(N)n4)[C@H]3SC2)c2cc(F)c(N3CCNCC3C)cc21 (some centres unmarked)", "Pseudomonas aeurginosa NCTC 10490", 1.56),
]

A: C=CCO/N=C(\C(=O)NC1C(=O)N2C(C(=O)[O-])=C(CSc3cc[n+](CC)c4cc(N5CCNCC5C)c(F)cc34)CS[C@H]12)c1csc(N)n1 (some centres unmarked)
B: Cc1cn(-c2cc3c(cc2F)c(SCC2=C(C(=O)[O-])N4C(=O)C(NC(=O)/C(=N\OC(C)(C)C(=O)O)c5csc(N)n5)[C@H]4SC2)cc[n+]3C2CC2)cn1 (some centres unmarked)
C: C#CCO/N=C(\C(=O)NC1C(=O)N2C(C(=O)[O-])=C(CSc3cc[n+](C)c4cc(N5CCNCC5C)c(F)cc34)CS[C@H]12)c1csc(N)n1 (some centres unmarked)
D: CO/N=C(\C(=O)NC1C(=O)N2C(C(=O)[O-])=C(CSc3cc[n+](C4CC4)c4cc(N5CCNCC5C)c(F)cc34)CS[C@H]12)c1csc(N)n1 (some centres unmarked)
Prompt: Reorder the items by Antibacterial Activity (MIC), least to greatest. To answer, write out the labels according to the requested order.
Response: C, D, B, A

a: C=CC[n+]1ccc(SCC2=C(C(=O)[O-])N3C(=O)C(NC(=O)/C(=N\OC(C)(C)C(=O)O)c4csc(N)n4)[C@H]3SC2)c2cc(F)c(N3CCNCC3C)cc21 (some centres unmarked)
b: CO/N=C(\C(=O)NC1C(=O)N2C(C(=O)[O-])=C(CSc3cc[n+](C4CC4)c4cc(-n5cnc(C)c5)c(F)cc34)CSC12)c1csc(N)n1 (centres unmarked)
Prompt: // task: argmin of Antibacterial Activity (MIC) over [ a , b ] Answer format: the label of the selected item.
Response: b
(b: 1.56 µg/mL, a: 3.13 µg/mL)

---

This section lists MIC readings for Bacillus subtilis ATCC 6633.
measurement.kind: MIC (µg/mL)

a: CC[n+]1ccc(SCC2=C(C(=O)[O-])N3C(=O)C(NC(=O)/C(=N\OC)c4csc(N)n4)C3SC2)c2cc(F)c(N3CCN(C)CC3)cc21 (stereo not drawn) [Compound I-10]
b: C#CCO/N=C(\C(=O)NC1C(=O)N2C(C(=O)[O-])=C(CSc3cc[n+](C4CC4)c4cc(N5CCNCC5)c(F)cc34)CS[C@H]12)c1csc(N)n1 (stereo partly drawn) [Compound I-41]
c: C=CCO/N=C(\C(=O)NC1C(=O)N2C(C(=O)[O-])=C(CSc3cc[n+](CC=C)c4cc(N5CCNCC5)c(F)cc34)CS[C@H]12)c1csc(N)n1 (stereo partly drawn) [Compound I-33]
Prompt: Put the items in sequence by MIC, from largest down. To answer, write out the labels according to the requested order.
Response: c, a, b
(c: 0.78 µg/mL, a: 0.39 µg/mL, b: 0.2 µg/mL)
